Origin of measurements: patent US6432879B1

measurementKind: melting point (°C)
Numeric answer only, unit °C assumed.

Check out these entries, answers already filled in.
O=c1cc(C(F)(F)F)[nH]c(=O)n1-c1ccc(OCc2ccc(Cl)cc2)cc1[N+](=O)[O-]; 237
Cn1c(C(F)(F)F)cc(=O)n(-c2ccc(OCc3ccc(Cl)cc3)cc2N)c1=O; 166
O=c1cc(C(F)(F)F)[nH]c(=O)n1-c1ccc(OCc2ccc(Cl)nc2)cc1[N+](=O)[O-]; 209
CC(=O)Nc1cc(OCc2ccc(Cl)cc2)ccc1-n1c(=O)cc(C(F)(F)F)n(C)c1=O; 230
Nn1c(C(F)(F)F)cc(=O)n(-c2ccc(OCc3ccc(Cl)nc3)cc2[N+](=O)[O-])c1=O; 193

# evaluate next
Q. So what's the measured melting point for this one? `Cn1c(C(F)(F)F)cc(=O)n(-c2ccc(OCc3ccc(Cl)cc3)cc2[N+](=O)[O-])c1=O`
A. 159
